TGT: T1, endogenous human PSMA (prostate-specific membrane antigen) expressed on LNCaP human prostate cancer cells (human, UniProt Q04609 1-750)
T1 construct: whole, on cells; also called PSMA-expressing LNCaP cells
ASSAY_DETAILS: flow cytometry on LNCaP cells
OBSERVED_PROPERTY: pEC50
When answering, recall that pEC50 equals minus log10 of the concentration in mol/L, and write that number alone.

INPUT: Supply reported pEC50 belonging to this binder: anti-PSMA antibody PSGB12 (antibody, V domains shown, Fully human IgG) VH: QVQLVQSGGGLVQPGGSLRLSCAASGFTFSSYWMSWVRQAPGKGLEWVANIKQDGSEKYYVDSVKGRFTISRDNAKNSLYLQMNSLRAEDTAVYYCARVWDYYYDSSGDAFDIWGQGTMVTVSS VL: DVVMTQSPSTLSASVGDRVTITCRASQSISSWLAWYQQKPGKAPKLLIFAASSLQSGVPSRFSGSGSGTDFALTISSLQPEDFATYYCQESYSIPWTFGQGTKVEIK
OUTPUT: 8.46
